METHOD: Metabolic stability in vitro, dog liver microsomes (calculation of Fmax)
Assay type: in vitro ADME
DETAILS: dog liver microsomes, 1 μM
Use 80% as the dividing line for Dog liver microsomes; Fmax [%], with the line itself on the 1 side and lower values as -1.

COMPOUND | CATEGORY
COc1cc(S(C)(=O)=O)ccc1Nc1nc2ccc(-c3ccc(NC(=O)[C@H](C)c4ccc(F)cc4)cc3)cn2n1 [Compound A1] | -1
C[C@@H](C(=O)Nc1ccc(-c2ccc3nc(Nc4ccc(S(C)(=O)=O)cc4OCC(F)(F)F)nn3c2)cc1)c1ccc(F)cc1 [Compound A2] | -1
C[C@@H](C(=O)Nc1ccc(-c2ccc3nc(Nc4ccc(C(=O)N5CC(F)C5)cc4OCC(F)(F)F)nn3c2)cc1)c1ccc(F)cc1 [Compound A5] | -1
COc1cc(C(=O)N2CCC2)ccc1Nc1nc2ccc(-c3ccc(NC(=O)[C@H](C)c4ccc(F)cc4)cc3)cn2n1 [Compound A4] | -1
COc1cc(C(=O)N2CC(F)C2)ccc1Nc1nc2ccc(-c3ccc(NC(=O)[C@H](C)c4ccc(F)cc4)cc3)cn2n1 [Compound A3] | 1

* * *

Test system: HeLa human cervical tumor cells
METHOD: Proliferation assay, HeLa cells (crystal violet)
Format: cell-based
DETAILS: HeLa, comparison table with comparative examples, read-out: Inhibition of cell proli-feration, cell line: HeLa, IC50
pIC50: −log10 of the molar value.

MOLECULE | pIC50
C[C@@H](C(=O)Nc1ccc(-c2ccc3nc(Nc4ccc(S(C)(=O)=O)cc4OCC(F)(F)F)nn3c2)cc1)c1ccc(F)cc1 [Compound A2] | > 6.70
N#Cc1ccccc1Nc1nc2ccc(-c3ccc(NC(=O)C4(c5ccccc5)CC4)cc3)cn2n1 [reference compound] | 5.85
N#Cc1ccccc1Nc1nc2cnc(-c3ccc(NC(=O)Cc4ccc(F)cc4)cc3)cn2n1 [reference compound] | 5.82
COc1cc(S(C)(=O)=O)ccc1Nc1nc2ccc(-c3ccc(NC(=O)[C@H](C)c4ccc(F)cc4)cc3)cn2n1 [Compound A1] | > 6.40
COc1cc(C(=O)N2CCC2)ccc1Nc1nc2ccc(-c3ccc(NC(=O)[C@H](C)c4ccc(F)cc4)cc3)cn2n1 [Compound A4] | > 7.00
C[C@@H](C(=O)Nc1ccc(-c2ccc3nc(Nc4ccc(C(=O)N5CC(F)C5)cc4OCC(F)(F)F)nn3c2)cc1)c1ccc(F)cc1 [Compound A5] | > 7.00

* * *

METHOD: Metabolic stability in vitro, dog liver microsomes (calculation of Fmax)
Assay type: in vitro ADME
DETAILS: comparison table with comparative examples

COMPOUND | Dog liver microsomes; Fmax [%]
CS(=O)(=O)c1ccc(Nc2nc3ccc(-c4ccc(NC(=O)Cc5ccc(F)cc5)cc4)cn3n2)c(OCC(F)(F)F)c1 [reference compound] | 25%
COc1cc(N2CCOC2=O)ccc1Nc1nc2ccc(-c3ccc(NC(=O)Cc4ccc(F)cc4)cc3)cn2n1 [reference compound] | 17%
COc1cc(C(=O)N2CCC2)ccc1Nc1nc2ccc(-c3ccc(NC(=O)[C@H](C)c4ccc(F)cc4)cc3)cn2n1 | 75%
C[C@@H](C(=O)Nc1ccc(-c2ccc3nc(Nc4ccc(C(=O)N5CC(F)C5)cc4OCC(F)(F)F)nn3c2)cc1)c1ccc(F)cc1 | 57%
CCOc1cc(S(C)(=O)=O)ccc1Nc1nc2ccc(-c3ccc(C(=O)NCc4ccc(F)cc4)c(C)c3)cn2n1 [reference compound] | 12%
C[C@@H](C(=O)Nc1ccc(-c2ccc3nc(Nc4ccc(S(C)(=O)=O)cc4OCC(F)(F)F)nn3c2)cc1)c1ccc(F)cc1 | 55%
COc1cc(S(C)(=O)=O)ccc1Nc1nc2ccc(-c3ccc(NC(=O)[C@H](C)c4ccc(F)cc4)cc3)cn2n1 | 64%
COc1cc(C(=O)NCC(F)(F)F)ccc1Nc1nc2ccc(-c3ccc(NC(=O)Cc4ccc(F)cc4)cc3)cn2n1 [reference compound] | 40%
COc1cc(C(=O)N2CC(F)C2)ccc1Nc1nc2ccc(-c3ccc(NC(=O)[C@H](C)c4ccc(F)cc4)cc3)cn2n1 | 86%
N#Cc1c(F)cccc1Nc1nc2ccc(-c3ccc(NC(=O)Cc4ccc(F)cc4)cc3)cn2n1 [reference compound] | 15%
COc1cc(S(C)(=O)=O)ccc1Nc1nc2ccc(-c3ccc(NC(=O)Cc4ccc(F)cc4)cc3)cn2n1 [reference compound] | 10%

* * *

METHOD: Metabolic stability in vitro, rat liver microsomes (calculation of Fmax)
Assay type: in vitro ADME
DETAILS: comparison table with comparative examples

MOLECULE | ENDPOINT UNIT | Rat liver microsomes; Fmax [%]
N#Cc1ccccc1Nc1nc2ccc(-c3ccc(NC(=O)C(F)(F)c4ccccc4)cc3)cn2n1 [reference compound] | % | 27
COc1cc(C(=O)N2CC(F)C2)ccc1Nc1nc2ccc(-c3ccc(NC(=O)[C@H](C)c4ccc(F)cc4)cc3)cn2n1 [Compound A3] | % | 83
COC(C(=O)Nc1ccc(-c2ccc3nc(Nc4ccccc4C#N)nn3c2)cc1)c1ccccc1 (stereo not shown) [reference compound] | % | 19
COc1cc(C(=O)N2CCC2)ccc1Nc1nc2ccc(-c3ccc(NC(=O)[C@H](C)c4ccc(F)cc4)cc3)cn2n1 [Compound A4] | % | 74

* * *

METHOD: Stability in buffer at pH 7.4 (HPLC)
Type: physicochemical
DETAILS: buffer pH 7.4, 37° C.
Structures can show the parent of a compound that is named as a salt.
# % Test Compound after 24 h [F(t = 24 h) × 100/F(t = 0 h)] listing for each entry below
VALUE TYPE: % Test Compound after 24 h [F(t = 24 h) × 100/F(t = 0 h)] (%)

MOLECULE | REPORTED
COc1cc(S(C)(=O)=O)ccc1N(C(=O)OC(C)OC(=O)[C@@H](NC(=O)[C@@H](N)C(C)C)C(C)C)c1nc2ccc(-c3ccc(NC(=O)[C@H](C)c4ccc(F)cc4)cc3)cn2n1.Cl (mixture of isomers) | 48
COc1cc(S(C)(=O)=O)ccc1N(C(=O)OC(OC(=O)[C@@H](N)C(C)C)C(C)C)c1nc2ccc(-c3ccc(NC(=O)[C@H](C)c4ccc(F)cc4)cc3)cn2n1 (single isomer, unassigned) [Example 5.2, hydrochloride] | 48
CNCCOC(=O)N(c1nc2ccc(-c3ccc(NC(=O)[C@H](C)c4ccc(F)cc4)cc3)cn2n1)c1ccc(S(C)(=O)=O)cc1OC.Cl | 48

* * *

# Human liver microsomes; Fmax [%] listing for each entry below
METHOD: Metabolic stability in vitro, human liver microsomes (calculation of Fmax)
Type: in vitro ADME
DETAILS: human liver microsomes, 1 μM
VALUE TYPE: Human liver microsomes; Fmax [%] (%)

MOLECULE | COMPARATOR | REPORTED
COc1cc(C(=O)N2CC(F)C2)ccc1Nc1nc2ccc(-c3ccc(NC(=O)[C@H](C)c4ccc(F)cc4)cc3)cn2n1 | > | 95
COc1cc(S(C)(=O)=O)ccc1Nc1nc2ccc(-c3ccc(NC(=O)[C@H](C)c4ccc(F)cc4)cc3)cn2n1 | = | 92
COc1cc(C(=O)N2CCC2)ccc1Nc1nc2ccc(-c3ccc(NC(=O)[C@H](C)c4ccc(F)cc4)cc3)cn2n1 | = | 62
C[C@@H](C(=O)Nc1ccc(-c2ccc3nc(Nc4ccc(S(C)(=O)=O)cc4OCC(F)(F)F)nn3c2)cc1)c1ccc(F)cc1 | > | 95
C[C@@H](C(=O)Nc1ccc(-c2ccc3nc(Nc4ccc(C(=O)N5CC(F)C5)cc4OCC(F)(F)F)nn3c2)cc1)c1ccc(F)cc1 | = | 69

* * *

METHOD: Metabolic stability in vitro, rat liver microsomes (calculation of Fmax)
Format: in vitro ADME
DETAILS: rat liver microsomes, 1 μM
Method: The metabolic stability of test compounds in vitro was determined by incubating them at 1 μM with a suspension liver microsomes in 100 mM phosphate buffer, pH7.4 (NaH2PO4×H2O+Na2HPO4×2H2O) at a protein concentration of 0.5 mg/mL and at 37° C. […] Samples were frozen at −20° C. over night, subsequently centrifuged for 15 minutes at 3000 rpm and the supernatant was analyzed with an Agilent 1200 HPLC-system with LCMS/MS detection. […]
VALUE TYPE: Rat liver microsomes; Fmax [%] (%)

MOLECULE | VALUE TYPE | REPORTED
COc1cc(C(=O)N2CC(F)C2)ccc1Nc1nc2ccc(-c3ccc(NC(=O)[C@H](C)c4ccc(F)cc4)cc3)cn2n1 | Rat liver microsomes; Fmax [%] | 83
COc1cc(S(C)(=O)=O)ccc1Nc1nc2ccc(-c3ccc(NC(=O)[C@H](C)c4ccc(F)cc4)cc3)cn2n1 | Rat liver microsomes; Fmax [%] | 92
C[C@@H](C(=O)Nc1ccc(-c2ccc3nc(Nc4ccc(C(=O)N5CC(F)C5)cc4OCC(F)(F)F)nn3c2)cc1)c1ccc(F)cc1 | Rat liver microsomes; Fmax [%] | 89
COc1cc(C(=O)N2CCC2)ccc1Nc1nc2ccc(-c3ccc(NC(=O)[C@H](C)c4ccc(F)cc4)cc3)cn2n1 | Rat liver microsomes; Fmax [%] | 74
C[C@@H](C(=O)Nc1ccc(-c2ccc3nc(Nc4ccc(S(C)(=O)=O)cc4OCC(F)(F)F)nn3c2)cc1)c1ccc(F)cc1 | Rat liver microsomes; Fmax [%] | 93

Cited source: patent US9586958B2
